# Tested on: Vero E6 infected with SARS-CoV-2
# Assay Method Text: inhibition of SARS-CoV-2 cytopathic effect; higher = more antiviral protection, active = above 15
# Condition Label: 1 nM; 48 h
# Lookup of reported inhibition of SARS-CoV-2 cytopathic effect keyed by entry
Answer in %, number only, no unit symbol.

Worked cases, answers included:
CC(=O)Nc1ccc(O)cc1 [paracetamol] ... -0.44
CC(=O)c1ccc(NS(C)(=O)=O)c(Oc2ccc(F)cc2F)c1 ... 4.46
CCN1CCN(Cc2ccc(C(=O)Nc3ccc(C)c(Oc4ccc5c(c4)CC(=O)N5)c3)cc2C(F)(F)F)CC1 ... -1.15

Item: `Cn1cnnc1Sc1c([N+](=O)[O-])ncn1C` | System: Vero E6 infected with SARS-CoV-2 | inhibition of SARS-CoV-2 cytopathic effect: 3.11

Item: `COc1ccc(C(=O)c2c(C)n(CCN3CCOCC3)c3cc(I)ccc23)cc1` | System: Vero E6 infected with SARS-CoV-2 | inhibition of SARS-CoV-2 cytopathic effect: -3.57

Item: `CCCCOCCOc1nc(-c2ccc(C(=O)O)c(F)c2)sc1C` | System: Vero E6 infected with SARS-CoV-2 | inhibition of SARS-CoV-2 cytopathic effect: -0.86

Item: `COc1cc(Br)c(Nc2nc(-c3c(C)nc4ncccn34)cs2)c(Br)c1` | System: Vero E6 infected with SARS-CoV-2 | inhibition of SARS-CoV-2 cytopathic effect: -0.04

Item: `COc1cccc2cc(-c3nc([C@H]4CC[C@H](C(=O)O)CC4)n4ncnc(N)c34)[nH]c12` | System: Vero E6 infected with SARS-CoV-2 | inhibition of SARS-CoV-2 cytopathic effect: 0.22

Item: CCOc1ccccc1-n1c(C(C)N2CCN(C(=O)COc3ccc(Cl)cc3)CC2)nc2ccccc2c1=O (stereo not given) [erastin] | System: Vero E6 infected with SARS-CoV-2 | inhibition of SARS-CoV-2 cytopathic effect: -2.42

Item: `COc1cccc(-c2cc(=O)c3ccccc3o2)c1N` | System: Vero E6 infected with SARS-CoV-2 | inhibition of SARS-CoV-2 cytopathic effect: 1.12

* * *

# Lookup of reported SARS-CoV-2 infection rate keyed by entry
# Tested on: Vero E6 infected with SARS-CoV-2
# Assay Method Text: SARS-CoV-2 infection rate relative to infected DMSO; higher = more infection, active = 60 or less
# Condition Label: 24 h
Answer in %, number only, no unit symbol.

Worked cases, answers included:
CCN(CC)CCOc1ccc(Nc2ncc3cc(-c4c(Cl)cccc4Cl)c(=O)n(C)c3n2)cc1 (10 µM) ... 123
NC(=O)CCCCC1CCSS1 (stereo not drawn) [lipoamide] (10 µM) ... 108
Fc1ccc([C@@H]2CCNC[C@H]2COc2ccc3c(c2)OCO3)cc1 [paroxetine] (10 µM) ... 117
CC(C)(N)Cc1ccccc1 [phentermine] (10 µM) ... 118

Entry C[C@@H]1COCCN1c1cc(=O)n2c(n1)N(Cc1cncc(Cl)c1)[C@H](C(F)(F)F)CC2 (0.833333 µM) — recorded SARS-CoV-2 infection rate = 70

Entry O=C(O)[C@@H](S)[C@@H](S)C(=O)O [dimercaptosuccinic-acid] (10 µM) — recorded SARS-CoV-2 infection rate = 100

Entry O=C(NC(O)C(Cl)(Cl)Cl)NC(O)C(Cl)(Cl)Cl (stereo not drawn) [dicloralurea] (10 µM) — recorded SARS-CoV-2 infection rate = 106

Entry CC#C[C@]1(O)CC[C@H]2[C@@H]3CCC4=CC(=O)CCC4=C3[C@@H](c3ccc(N(C)C)cc3)C[C@@]21C [mifepristone] (10 µM) — recorded SARS-CoV-2 infection rate = 65.5
